# Test system: MOLM14;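 further: after 48 h exposure read by CellTiter-Glo luminescence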
# assay-overview: cell viability relative to vehicle control; higher = less cytotoxic
# condition-parameters: 10 µM; SRSF2 genotype: SRSF2 wt/wt
Counter-ions that a name gives are not always drawn.
We label by threshold. Values of cell viability strictly beneath 90% are fulfilled. Values of 90% and up are not fulfilled.

In [3]: df
Out[3]:
                                   compound  qualitative_label
0  COc1ccc(CC(C)NCC(O)c2ccc(O)c(NC=O)c2)cc1 (configuration not stated) [Formoterol hemifumarate]          fulfilled
1  COCCOC(=O)C1=C(C)NC(C)=C(C(=O)OC/C=C/c2ccccc2)C1c1cccc([N+](=O)[O-])c1 (configuration not stated)          fulfilled
2  CC(=O)O[C@H]1CC(=O)OC(C)(C)[C@@H]2CC(=O)[C@]3(C)[C@H](CC[C@@]4(C)[C@@H](c5ccoc5)OC(=O)[C@H]5O[C@]543)[C@@]12C      not fulfilled
3  CN1CCN(c2ccc(C(=O)Nc3n[nH]c4ccc(Cc5cc(F)cc(F)c5)cc34)c(NC3CCOCC3)c2)CC1 [Entrectinib (RXDX-101)]          fulfilled
4  COc1cc(NS(=O)(=O)c2ccc(N)cc2)nc(OC)n1 [SulfadiMethoxine sodium]      not fulfilled
5  CC1(C)OC[C@@H](COC(=O)CCc2ccc(OC[C@@H](O)CNCCNC(=O)N3CCOCC3)cc2)O1 [Landiolol hydrochloride]      not fulfilled
